Measured activation at 3 µM values are reported for all entries that follow.
Target: GABA-A alpha2 receptor (alpha 2 subunit together with a beta and a gamma subunit) (Homo sapiens, UniProt P18507+P47869)
Construct: expressed in transfected cells
Sequence (P47869 29-451): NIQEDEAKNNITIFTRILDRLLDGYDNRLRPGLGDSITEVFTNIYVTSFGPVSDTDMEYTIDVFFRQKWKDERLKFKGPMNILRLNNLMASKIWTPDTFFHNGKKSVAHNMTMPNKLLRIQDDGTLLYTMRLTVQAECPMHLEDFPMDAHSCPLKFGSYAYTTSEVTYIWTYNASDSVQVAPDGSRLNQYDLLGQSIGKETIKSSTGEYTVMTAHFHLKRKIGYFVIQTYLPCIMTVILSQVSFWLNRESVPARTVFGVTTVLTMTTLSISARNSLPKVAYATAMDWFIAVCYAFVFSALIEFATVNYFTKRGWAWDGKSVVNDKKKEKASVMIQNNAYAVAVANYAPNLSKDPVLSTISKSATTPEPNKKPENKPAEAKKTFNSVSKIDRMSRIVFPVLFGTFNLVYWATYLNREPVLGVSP
Sequence (P47870 25-512 partner limits assumed): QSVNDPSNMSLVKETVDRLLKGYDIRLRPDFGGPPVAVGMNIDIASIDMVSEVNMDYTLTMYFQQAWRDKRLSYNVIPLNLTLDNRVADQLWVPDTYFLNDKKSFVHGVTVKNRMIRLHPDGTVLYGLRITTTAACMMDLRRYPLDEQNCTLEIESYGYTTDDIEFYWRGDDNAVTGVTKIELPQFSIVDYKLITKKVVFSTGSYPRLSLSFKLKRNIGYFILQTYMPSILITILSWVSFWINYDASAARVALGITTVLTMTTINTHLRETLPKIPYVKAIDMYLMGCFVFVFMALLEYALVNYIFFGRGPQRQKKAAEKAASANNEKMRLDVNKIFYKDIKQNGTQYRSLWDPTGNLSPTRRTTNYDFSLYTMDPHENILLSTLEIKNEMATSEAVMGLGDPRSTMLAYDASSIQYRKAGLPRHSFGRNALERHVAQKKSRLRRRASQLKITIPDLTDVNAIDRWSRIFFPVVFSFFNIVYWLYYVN
Sequence (P18507 40-467 limits assumed): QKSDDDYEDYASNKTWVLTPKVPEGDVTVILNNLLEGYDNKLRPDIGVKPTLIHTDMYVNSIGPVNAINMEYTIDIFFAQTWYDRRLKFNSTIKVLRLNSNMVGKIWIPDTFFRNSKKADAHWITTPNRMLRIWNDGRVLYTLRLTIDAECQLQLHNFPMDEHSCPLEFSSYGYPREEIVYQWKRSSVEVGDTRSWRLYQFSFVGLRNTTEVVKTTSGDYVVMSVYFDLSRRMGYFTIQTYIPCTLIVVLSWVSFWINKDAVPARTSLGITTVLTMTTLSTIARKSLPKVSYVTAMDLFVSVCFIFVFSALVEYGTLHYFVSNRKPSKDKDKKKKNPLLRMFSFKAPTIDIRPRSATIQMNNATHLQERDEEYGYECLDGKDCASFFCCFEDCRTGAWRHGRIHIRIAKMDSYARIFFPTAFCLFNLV
Test: GABA-A receptor modulation, voltage-sensitive dye fluorescence in transfected eukaryotic cell line (alpha2)
Assay type: cell-based
Conditions: compounds at 3 μM; sub-maximal concentration of GABA (EC20); read-out: alpha2 % mod (percentage of increase of the fluorescent signal compared to signal without the agent)
Text: GABA-A receptor modulators show in functional assays a positive modulation of GABA-induced signals. […] This allows the quantification of effects induced by the modulator in a functional manner. […] The affinity of a compound to the GABA-A receptor can be measured in radioligand binding experiments using reference ligands containing a radioactive element, e.g., tritiated flumazenil, and intact cells or membrane preparations of cells expressing GABA-A receptors. […]
reported-endpoint: activation at 3 µM (%)

INSERT INTO measurements (query_smiles, reported_endpoint, unit_of_measurement, test_value) VALUES
  ('Fc1ccccc1-n1nc2c(cnc3ccccc32)c1OCCc1ccccc1Cl', 'activation at 3 µM', '%', 101),
  ('Clc1ccc(-n2nc3c(cnc4ccccc43)c2OC2CCCC2)cc1', 'activation at 3 µM', '%', 57),
  ('N#Cc1ccc2ncc3c(OCc4ccc(Cl)cc4)n(-c4ccccc4)nc3c2c1', 'activation at 3 µM', '%', 88),
  ('COc1ccc(-n2nc3c(cnc4ccccc43)c2OCc2ccncc2)cc1', 'activation at 3 µM', '%', 177),
  ('Clc1ccc(-n2nc3c(cnc4ccccc43)c2OCC2CCCC2)cc1', 'activation at 3 µM', '%', 84),
  ('Cc1cccc2c1ncc1c(OCc3ccc(Cl)cc3)n(-c3ccccc3)nc12', 'activation at 3 µM', '%', 81),
  ('COc1ccc(-n2nc3c(cnc4ccccc43)c2OCc2ccc(C(F)(F)F)cc2)cc1', 'activation at 3 µM', '%', 36),
  ('Fc1ccccc1COc1c2cnc3ccccc3c2nn1-c1ccccc1', 'activation at 3 µM', '%', 165),
  ('COc1ccc(-n2nc3c(cnc4ccccc43)c2OCCc2ccccc2Cl)cc1', 'activation at 3 µM', '%', 197),
  ('Clc1ccc(-n2nc3c(cnc4ccc(Br)cc43)c2OCc2ccccc2Cl)cc1', 'activation at 3 µM', '%', 66),
  ('Clc1ccc(-n2nc3c(cnc4ccccc43)c2OCC2CC2)cc1', 'activation at 3 µM', '%', 164),
  ('COc1ccc(-n2nc3c(cnc4ccccc43)c2OCc2ccc(Cl)cc2)cc1', 'activation at 3 µM', '%', 69),
  ('Clc1ccccc1-n1nc2c(cnc3ccccc32)c1OCc1ccccc1Br', 'activation at 3 µM', '%', 386),
  ('COc1ccc(-n2nc3c(cnc4ccccc43)c2OCCN2CCOCC2)cc1', 'activation at 3 µM', '%', 196),
  ('Fc1ccc(-n2nc3c(cnc4ccccc43)c2OCc2ccccc2F)cc1', 'activation at 3 µM', '%', 146),
  ('COc1ccc(-n2nc3c(cnc4ccccc43)c2OCc2ccccc2Cl)cc1', 'activation at 3 µM', '%', 145),
  ('Cc1ccccc1-n1nc2c(cnc3ccccc32)c1OCc1ccccc1Br', 'activation at 3 µM', '%', 315),
  ('Clc1ccc(-n2nc3c(cnc4ccc(-n5ccnc5)cc43)c2OCC2CCCC2)cc1', 'activation at 3 µM', '%', 88);
